Value source: patent US20230338391A1

Experiment: Phase 1 SRD/multiple-rising dose (MRD, Part 2) plasma PK in healthy subjects
Format: in vivo, human
Conditions: both sexes, human, plasma, oral, 3 mg, 3 mg QD, Study Day 18; median; read-out: tmax
Protocol: The study was designed to assess the safety, tolerability, PK, and PD of COMPOUND A. A total of 88 subjects were enrolled in 6 SRD and 5 SRD/MRD cohorts (n=8 per cohort). The study was composed of 2 parts. […] Referring now to FIG. 3, mean plasma concentration-time profiles (linear and semilog scales) of COMPOUND A were determined on Day 18 following oral administration of COMPOUND A QD for 13 days.
property name: Tmax (h)
Expressed in h, but write only the number.

Query CC1=CN2CCS(=O)(=O)N=C2C(c2ccc(OC3CCCCC3)cc2)=N1 yields Tmax of 4

---

Experiment: 14-day rat neurotoxicology study: toxicokinetics
Type: in vivo, Sprague-Dawley rats
Details: male, Sprague-Dawley, rat, plasma, po, 50 mg/kg/day, 50 mg/kg/day oral, male, Day 14; read-out: AUC24
property name: AUC (ng·h/mL)
Expressed in ng·h/mL, but write only the number.

Query CC1=CN2CCS(=O)(=O)N=C2C(c2ccc(OC3CCCCC3)cc2)=N1 yields AUC of 8750

---

Assay: Phase 1 SRD/multiple-rising dose (MRD, Part 2) plasma PK in healthy subjects
Type: in vivo, human
Conditions: both sexes, human, plasma, oral, Day 18; range over the 0.3 to 9 mg QD dose range; read-out: mean Cav,ss
property name: concentration at 18 day

Query CC1=CN2CCS(=O)(=O)N=C2C(c2ccc(OC3CCCCC3)cc2)=N1 yields concentration at 18 day of 6.27 to 192 ng/mL

---

Assay: Phase 1 single-rising dose (SRD, Part 1) plasma PK in healthy subjects
Type: in vivo, human
Conditions: both sexes, human, plasma; single oral 5 mg; mean, N = 6
property name: AUC(0-t) (µg·h/mL)
Expressed in µg·h/mL, but write only the number.

Query CC1=CN2CCS(=O)(=O)N=C2C(c2ccc(OC3CCCCC3)cc2)=N1 yields AUC(0-t) of 2.32

---

Assay: Phase 1 single-rising dose (SRD, Part 1) plasma PK in healthy subjects
Format: in vivo, human
Settings: both sexes, human, plasma; single oral 1 mg; mean, N = 6; read-out: Cmax
property name: Cmax (ng/mL)
Expressed in ng/mL, but write only the number.

Query CC1=CN2CCS(=O)(=O)N=C2C(c2ccc(OC3CCCCC3)cc2)=N1 yields Cmax of 10.3

---

Assay: Phase 1 single-rising dose (SRD, Part 1) plasma PK in healthy subjects
Type: in vivo, human
Conditions: both sexes, human, plasma, po, 18 mg, single oral 18 mg; median, N = 6; read-out: tmax
property name: Tmax (h)
Expressed in h, but write only the number.

Query CC1=CN2CCS(=O)(=O)N=C2C(c2ccc(OC3CCCCC3)cc2)=N1 yields Tmax of 5.05

---

Experiment: 14-day rat neurotoxicology study: toxicokinetics
Type: in vivo, Sprague-Dawley rats
Conditions: both sexes, Sprague-Dawley, rat, plasma, oral, 100 mg/kg/day, NOAEL 100 mg/kg/day; read-out: NOAEL exposure cap (AUC) from the 14-day neurotoxicity study in rats
property name: AUC (ng·h/mL)
Expressed in ng·h/mL, but write only the number.

Query CC1=CN2CCS(=O)(=O)N=C2C(c2ccc(OC3CCCCC3)cc2)=N1 [COMPOUND A] yields AUC of 17400
